# System: Rattus norvegicus
# method-description: Inhibitory activity against the pressor response induced by Angiotensin II (AII) in conscious rats, at 1 mg/kg p.o. at 3h
# Assay type: functional
# condition-set: route oral
measurement-type: inhibition in vivo at 1 mg/kg
Include the unit after the number when you answer.

Hello, I would appreciate it if you could give inhibition in vivo at 1 mg/kg for each entry below.
1. CCCSc1nc2cccc(C(=O)O)c2n1Cc1ccc(-c2ccccc2-c2noc(O)n2)cc1
2. CCSc1nc2cccc(C(=O)O)c2n1Cc1ccc(-c2ccccc2-c2noc(O)n2)cc1
3. CCNc1nc2cccc(C(=O)O)c2n1Cc1ccc(-c2ccccc2-c2noc(O)n2)cc1
4. CCCc1nc2cccc(C(=O)O)c2n1Cc1ccc(-c2ccccc2-c2noc(O)n2)cc1

Output line:
1. 80%
2. 83%
3. 25%
4. 100%
